Tested on: HS 578T breast
Assay details: NCI tumour cell line growth inhibition, 48 h
Listed next: entries and their corresponding TGI.
Hi! Could you send only the number? It should be in µM, unit omitted.

As a guide, the following entries are already answered.
Molecule: CCCCCCCCCCCCCCCC[N+](C)(CCO)Cc1cnc[nH]1 (centres undefined)
TGI [µM]: 35.9
--
Molecule: COc1ccc(C[C@@H]2NC[C@@H](O)[C@@H]2OC(C)=O)cc1
TGI [µM]: 0.169

State recorded TGI with HS 578T breast, entry O=C(O)CCC/C=C\C[C@H]1C=CC(=O)/C1=C/C[C@@H](O)CCc1cccc(C(F)(F)F)c1 , no comment.
71.2

State recorded TGI with HS 578T breast, entry CN(C)C/C=C/C(=O)Nc1cc2c(Nc3ccc(F)c(Cl)c3F)ncnc2cc1OCCOC(F)F , no comment.
6.19

---

Tested on: NCI-H23 lung
Assay details: NCI tumour cell line growth inhibition, 48 h
Measurement name: GI50

As a guide, the following entries are already answered.
Molecule: CC(=O)N1c2ccccc2NC2=C(C(=O)N(Cc3ccccc3)C2(C)C)C1c1ccco1 (stereo not given)
System: NCI-H23 lung
Observed measurement: 0.494 µM
//
Molecule: CN(C)c1ncc(-c2ccc(C(F)(F)F)cc2)c(NC2CCCCCC2)n1
System: NCI-H23 lung
Observed measurement: 17.3 µM
//
Molecule: S=C(Nc1ccc(Cl)cc1)Nc1ccc(-c2nc3ccccc3o2)cc1
System: NCI-H23 lung
Observed measurement: 17.7 µM
//
Molecule: O=[N+]([O-])c1ccccc1NC1c2ccccc2Oc2ccccc21
System: NCI-H23 lung
Observed measurement: 9.67 µM

# ---- query molecule ----
Item NCCN.NCCN.O=C[O-].O=C[O-].[Co+3].[O-][Cl+3]([O-])([O-])[O-] : provide GI50
> 100 µM

---

System: COLO 205 colon
Assay details: NCI tumour cell line growth inhibition, 48 h; in the data active = GI50 below about 0.43 µM; inactive = the rest
API: response.call in class 1 for active, class 0 for inactive

A selection of reference data follows.
Molecule: Fc1ccc(-c2ncn(C3CCNCC3)c2-c2ccnc(Oc3ccc(F)c(F)c3)n2)cc1
Class name: class 0

Molecule: Cc1nc([C@H]2CC[C@H]3[C@@H]4CCC5=CC(=O)CC[C@]5(C)[C@H]4CC[C@]23C)cs1
Class name: class 0

Molecule: Nc1ccccc1NC(=O)c1ccc(CCCC(=O)Nc2ccc(C3CC3N)cc2)cc1 (stereo unspecified)
Class name: class 0

Molecule: CC#C/C(=N\OC[C@H]1COCCN1)c1ccc2ncnc(Nc3ccc(OCc4cccc(F)c4)c(Cl)c3)c2c1
Class name: class 0

Can you look up the reported call for COc1cc(/C=C/c2cc(/C=C/c3ccc(O)c(OC)c3)nc(N)n2)ccc1O for me?
class 0

---

Tested on: UACC-62 melanoma
Assay details: NCI tumour cell line growth inhibition, 48 h
Listed next: entries and their corresponding GI50.

As a guide, the following entries are already answered.
Compound: S=C(Nc1ccc(Cl)cc1)Nc1ccc(-c2nc3ccccc3o2)cc1
Measurement name: GI50
Observed measurement: 12.7 µM
--
Compound: N#CSc1c[nH]c2ccc(/C=C/C(=O)/C=C(/C=C/c3ccc4[nH]cc(SC#N)c4c3)OB(F)F)cc12
Measurement name: GI50
Observed measurement: 1.2 µM
--
Compound: O=C(O)CCC/C=C\C[C@H]1C=CC(=O)/C1=C/C[C@@H](O)CCc1cccc(C(F)(F)F)c1
Measurement name: GI50
Observed measurement: 2.29 µM
--
Compound: CCN(CC)c1ccc2c(c1)Oc1nc(N)c(C#N)c(N)c1C2Sc1ccc(OC)cc1 (stereo not given)
Measurement name: GI50
Observed measurement: 1.72 µM
--
Compound: Nc1nc(Cl)cc(OCC2(CO)CC(OCc3ccccc3)C2)n1 (stereo not given)
Measurement name: GI50
Observed measurement: 77.1 µM

Item O=Cc1ccc(-c2ccc(-c3nc4ccccc4o3)cc2)s1 : provide GI50
30.7 µM

Item CS(=O)(=O)Nc1cccc(-c2cc(-c3ccccc3Cl)c(C#N)c(N)n2)c1 : provide GI50
0.51 µM

Item CN(C)c1ncc(-c2ccc(C(F)(F)F)cc2)c(NC2CCCCCC2)n1 : provide GI50
14.7 µM

Item CN1CCN(c2ccc(Nc3nc(N)c(C(=O)c4ccc5c(c4)OCCO5)s3)cc2)CC1 : provide GI50
4.19 µM

Item CCN(CC)CCCC(C)Nc1nc(C)cc(Nc2ccc3nc(C)cc(N)c3c2)n1 (stereo not given) : provide GI50
39.2 µM
